Provenance of the data: patent US11098090B2

# MEASUREMENT_DESCRIPTION: Plasma stability at 37° C., mouse plasma
# Assay type: in vitro ADME
# DETAILS: Table 5, read-out: Plasma half-life Mouse
Where no end group is shown, it is not given here.
RESULT_TYPE: half-life

[
  {
    "SUBSTANCE": "H-SELPAGHGLNVNTLSYGDLAAD [SEQ ID NO: 4]",
    "READING": "> 360 min"
  }
]

----------
Known half-life of a selection of compounds
# MEASUREMENT_DESCRIPTION: Plasma stability at 37° C., human plasma
# Assay type: in vitro ADME
# DETAILS: Table 7, same conditions as Example 3, read-out: Plasma half life Man
RESULT_TYPE: half-life (h)

[
  {
    "SMILES_RECORD": "CC(C)C[C@@H]1NC(=O)CNC(=O)[C@H](Cc2c[nH]cn2)NC(=O)[C@H](CC(=O)O)NC(=O)CNC(=O)[C@H](Cc2ccc(O)cc2)NC(=O)[C@H](CO)NC(=O)[C@H](CC(C)C)NC(=O)[C@H]([C@@H](C)O)NC(=O)[C@H](CC(N)=O)NC(=O)[C@H](C(C)C)NC(=O)[C@H](CC(N)=O)NC1=O",
    "RESULT_TYPE": "half-life",
    "READING": 0.75
  },
  {
    "SMILES_RECORD": "CC(C)C[C@H](NC(=O)CNC(=O)[C@@H](N)Cc1c[nH]cn1)C(=O)N[C@@H](CC(N)=O)C(=O)N[C@H](C(=O)N[C@@H](CC(N)=O)C(=O)N[C@H](C(=O)N[C@@H](CC(C)C)C(=O)N[C@@H](CO)C(=O)N[C@@H](Cc1ccc(O)cc1)C(=O)NCC(=O)N[C@H](CC(=O)O)C(N)=O)[C@@H](C)O)C(C)C",
    "RESULT_TYPE": "half-life",
    "READING": 1.4
  },
  {
    "SMILES_RECORD": "CC(C)C[C@H](NC(=O)CNC(=O)[C@H](N)Cc1c[nH]cn1)C(=O)N[C@@H](CC(N)=O)C(=O)N[C@H](C(=O)N[C@@H](CC(N)=O)C(=O)N[C@H](C(=O)N[C@@H](CC(C)C)C(=O)N[C@@H](CO)C(=O)N[C@@H](Cc1ccc(O)cc1)C(=O)NCC(=O)N[C@@H](CC(=O)O)C(N)=O)[C@@H](C)O)C(C)C",
    "RESULT_TYPE": "half-life",
    "READING": 1.85
  }
]

----------
# MEASUREMENT_DESCRIPTION: Plasma stability at 37° C., mouse plasma
# Type: in vitro ADME
# DETAILS: Table 4, read-out: Plasma half life Mouse
Where no end group is shown, it is not given here.

[
  {
    "SUBSTANCE": "H-GLNVNTLSYGDLAAD [SEQ ID NO: 23, GLNVNTLSYGDLAAD, reference compound]",
    "MEASURE_UNIT": "min",
    "half-life": 62
  },
  {
    "SUBSTANCE": "H-SELPAGHGLNVNTLS [SEQ ID NO: 5, SELPAGHGLNVNTLS]",
    "MEASURE_UNIT": "min",
    "half-life": 12
  }
]
